# experimental system: human GLP-1 receptor (human, UniProt P43220 24-463)
# protocol text: cell-based or functional assay
Positions of bridges follow the written chain, without caps; N, C: chain ends. Non-standard residues stand in square brackets, D forms with d. No end group written: not given here. *: point of attachment. Acetyl(2-(4-imidazolyl)) = O=C(Cc1c[nH]cn1)*; Aib = CC(C)(N)C(=O)O
measured attribute: In vitro Activity Compared to Native Peptide (%) vs. GLP-1
Provide only the numeric value, understood in %.

Incoming: What value of measured In vitro Activity Compared to Native Peptide (%) vs. GLP-1 is listed for H[Aib]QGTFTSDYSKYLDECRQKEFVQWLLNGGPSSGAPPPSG (bridge 16-20) [triple agonist of SEQ ID NO: 37] ?
Outgoing: 236

Incoming: Same thing, different binder: Y[Aib]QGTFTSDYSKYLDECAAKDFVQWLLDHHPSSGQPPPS (bridge 16-20) [triple agonist of SEQ ID NO: 67]
Outgoing: 28.5

Incoming: Next entry: [Acetyl(2-(4-imidazolyl))][Aib]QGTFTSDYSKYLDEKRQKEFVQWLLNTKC (bridge 16-20) [triple agonist of SEQ ID NO: 88]
Outgoing: 9.6
